# ASSAY DETAILS: Equilibrium solubility, saturation shake-flask, centrifugation as phase separation
# CONDITIONS USED: Britton-Robinson buffer, 25 °C, pH 3, aqueous buffer, thermodynamic from solid, Equilibrium solubility S sed, pH 3.0; sedimented before centrifugation; 10,000 rpm, 20 min
Counter-ions that a name gives are not always drawn.
READOUT LABEL: solubility thermodynamic (mg/mL)
Number only, in mg/mL; omit the unit.

Looking up COc1ccc(Cc2nccc3cc(OC)c(OC)cc23)cc1OC [PAP-HCL, papaverine hydrochloride] , I found its solubility thermodynamic recorded as 39.5

###

# ASSAY DETAILS: Equilibrium solubility, saturation shake-flask, centrifugation as phase separation
# CONDITIONS USED: Britton-Robinson buffer, pH 4, Equilibrium solubility S stir, pH 4.0; continuously stirred, no sedimentation; 10,000 rpm, 5 min
READOUT LABEL: solubility thermodynamic at 24 h (µg/mL)
Please give a number only; it is taken to be in µg/mL.

solubility thermodynamic at 24 h reading for O=C(O)Cc1ccccc1Nc1c(Cl)cccc1Cl [DICL-NA, Diclofenac sodium] : 2.79
